- assayed system: T1, full-length untagged human GPNMB expressed on cells (human, UniProt Q14956 23-572)
- T1 construct: also used here for GPNMB on human monocyte-derived macrophages in the functional assays; also called huGPNMB; Freestyle293-huGPNMB+
- T1 sequence: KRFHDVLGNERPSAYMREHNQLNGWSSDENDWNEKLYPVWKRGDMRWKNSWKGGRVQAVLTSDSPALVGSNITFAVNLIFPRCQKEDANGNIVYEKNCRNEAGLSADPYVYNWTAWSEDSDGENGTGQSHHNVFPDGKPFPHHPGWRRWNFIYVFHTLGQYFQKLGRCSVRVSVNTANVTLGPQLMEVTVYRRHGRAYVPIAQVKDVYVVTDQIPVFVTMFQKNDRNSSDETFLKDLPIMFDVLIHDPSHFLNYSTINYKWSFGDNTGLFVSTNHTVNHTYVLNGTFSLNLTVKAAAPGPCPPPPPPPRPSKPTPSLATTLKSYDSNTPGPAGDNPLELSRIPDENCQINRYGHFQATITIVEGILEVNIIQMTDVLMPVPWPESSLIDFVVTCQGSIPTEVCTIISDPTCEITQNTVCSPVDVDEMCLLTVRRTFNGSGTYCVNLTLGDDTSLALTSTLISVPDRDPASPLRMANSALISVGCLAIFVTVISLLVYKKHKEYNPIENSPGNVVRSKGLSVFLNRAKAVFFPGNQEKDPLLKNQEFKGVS
- experiment description: FACS titration, FS293-huGPNMB+ cells
readout type: EC50

Given the binder anti-GPNMB antibody GPN-85 (antibody, V domains shown) VH: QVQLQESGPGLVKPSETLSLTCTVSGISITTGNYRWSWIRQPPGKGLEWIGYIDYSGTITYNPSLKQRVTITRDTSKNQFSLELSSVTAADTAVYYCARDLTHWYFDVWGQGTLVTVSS VL: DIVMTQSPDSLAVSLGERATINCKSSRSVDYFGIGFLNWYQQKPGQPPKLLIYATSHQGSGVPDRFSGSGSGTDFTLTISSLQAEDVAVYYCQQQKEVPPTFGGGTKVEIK , what is its reported EC50?
0.385 nM

Given the binder anti-GPNMB antibody GPN-98 (antibody, V domains shown) VH: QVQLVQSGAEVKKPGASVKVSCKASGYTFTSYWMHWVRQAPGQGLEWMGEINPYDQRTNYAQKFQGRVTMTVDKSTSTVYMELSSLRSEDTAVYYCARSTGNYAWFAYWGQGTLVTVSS VL: DIVMTQSPDSLAVSLGERATINCKASQDVSPSLAWYQQKPGQPPKLLIYSASYRYTGVPDRFSGSGSGTDFTLTISSLQAEDVAVYYCQQHYSIPLTFGGGTKVEIK , what is its reported EC50?
0.407 nM
